tested on: Proteus vulgaris; experiment: Antibacterial activity against beta-lactamase producing Proteus vulgaris 29905 after 18 hrs by agar dilution assay; type: functional; settings: Proteus vulgaris, 29905, 18 h
We label by threshold. Values of MIC strictly beneath 0.2 µg/mL are 1.0. Values of 0.2 µg/mL and up are 0.0.

Consider "C[C@H]1[C@H](NC(=O)/C(=N\OC(C)(C)C(=O)O)c2csc(N)n2)C(=O)N1S(=O)(=O)O" . Does its MIC lie strictly below 0.2 µg/mL? 1.0

----------
test system: Pseudomonas aeruginosa; experiment: Antibacterial activity against BL positive Pseudomonas aeruginosa PAO1 after 18 hrs by agar dilution assay; format: functional; details: PAO1, 18 h
Examples of molecules with documented MIC follow.
State just the number; it will be interpreted in mg/L.

Example cases with answers are listed next.
MOLECULE | OBSERVED_RESULT
CCN(CC)CC.C[C@H]1[C@H](NC(=O)/C(=N\OCc2ccc(C(=O)N/N=C/c3ccc4ccccc4c3O)cc2)c2csc(N)n2)C(=O)N1S(=O)(=O)O | 16
CCN(CC)CC.C[C@H]1[C@H](NC(=O)/C(=N\OCc2ccc(C(=O)N/N=C/c3cccs3)cc2)c2csc(N)n2)C(=O)N1S(=O)(=O)O (relative stereo) | 64
CC1(C)[C@H](NC(=O)/C(=N\OCc2ccccn2)c2csc(N)n2)C(=O)N1S(=O)(=O)O | 32

Now consider a different molecule.
# returns recorded MIC (system: Pseudomonas aeruginosa) for CCN(CC)CC.Cc1ccc(O)c(/C=N/NC(=O)c2ccc(CO/N=C(\C(=O)N[C@@H]3C(=O)N(S(=O)(=O)O)[C@H]3C)c3csc(N)n3)cc2)c1 (relative stereo) 32
